- TGT: IL36R
- PROTOCOL DETAILS: Kd (SPR)
Please respond with reported Kd for every item in the list.
Please answer using the number first and the unit second.

## Input Look up Kd: unnamed (protein) chain 1: QVQLVQSGAEVKKPGASVKVSCKASGYSFTSSWIHWVKQAPGQGLEWMGEINPGNVRTNYNENFRNKVTMTVDTSISTAYMELSRLRSDDTAVYYCTRVFYGEPYFDYWGQGTLVTVSS chain 2: QIVLTQSPGTLSLSPGERATMTCTASSSVSSSYFHWYQQKPGQAPRLWIYRTSRLASGVPDRFSGSGSGTDFTLTISRLEPEDAATYYCHQFHRSPLTFGAGTKLEIK
## Output 1.13 nM

## Input Please look up its Kd: unnamed (protein) chain 1: QVQLVQSGAEVKKPGASVKVSCKASGYTFTSSWIHWVKQAPGQGLEWMGEIYPGNSNTNYNENFRNKVTMTVDTSISTAYMELSRLRSDDTAVYYCTRSRYGEPYFDYWGQGTLVTVSS chain 2: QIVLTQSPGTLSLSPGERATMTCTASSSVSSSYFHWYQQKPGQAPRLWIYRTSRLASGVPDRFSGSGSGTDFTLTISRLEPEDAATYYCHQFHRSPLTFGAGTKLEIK
## Output 38.2 nM

## Input Could you tell me which Kd is on file for unnamed (protein) chain 1: QVQLVQSGAEVKKPGASVKVSCKASGYTFTSAWIHWVKQAPGQGLEWMGEIYPGNSNTNYNENFRNKVTMTVDTSISTAYMELSRLRSDDTAVYYCTRVRYGEPYFDYWGQGTLVTVSS chain 2: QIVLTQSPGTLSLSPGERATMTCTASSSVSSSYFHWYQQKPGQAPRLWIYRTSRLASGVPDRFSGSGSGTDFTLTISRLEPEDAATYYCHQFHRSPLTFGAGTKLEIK ?
## Output 0.757 nM
